Reported values of viability, T/C for individual entries
Tested on: SW 982 tumor spheroid viability
assay procedure: Anticancer human tumor SW 982 cell line growth inhibition;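 further: spheroids exposed to compound for 7 days before readout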
applied conditions: second compound 0.0949 µM; first compound 0.316 µM; hits give low values; spheroids with HUVEC and MSC
Respond with the bare value in %.

Past entries and their recorded results:
CC(C)n1c(=O)n(C)c2cnc3cc(F)c(-c4ccc(OCCCN5CCCCC5)nc4)cc3c21 + CC[C@@]1(O)C(=O)OCc2c1cc1n(c2=O)Cc2cc3c(CN(C)C)c(O)ccc3nc2-1 :: 58.6
[2H]c1nc(C)nc([2H])c1-c1cc(NC[C@@H](C)c2cccc3c(C(=O)NC)ccnc23)ncn1 + CC[C@@]1(O)C(=O)OCc2c1cc1n(c2=O)Cc2cc3c(CN(C)C)c(O)ccc3nc2-1 :: 76.5

Continue with the molecule presented below.
Query viability, T/C on SW 982 tumor spheroid viability for COc1cc(C)[nH]c(=O)c1CN1CCc2c(Cl)cc(C(OC)C3COC3)c(Cl)c2C1=O (stereo not drawn) + CC[C@@]1(O)C(=O)OCc2c1cc1n(c2=O)Cc2cc3c(CN(C)C)c(O)ccc3nc2-1
65
